- assay.summary: Absorption spectra of rhodol fluorophores in phosphate buffer
- Format: physicochemical
- experimental.setup: 50 mM aqueous phosphate buffer at pH about 8.0, 25° C.
experimental.readout: Abs Max

Please fill in: Abs Max reported for CCCNc1ccc2c(c1)Oc1cc(OCOC)ccc1C21OC(=O)c2ccccc21 (centres unmarked) = 494 nm

Please fill in: Abs Max reported for C=CC(=O)Nc1ccc2c(c1)Oc1cc(O)ccc1C21OC(=O)c2ccccc21 (centres unmarked) = 462/490

Please fill in: Abs Max reported for O=C1OC2(c3ccc(O)cc3Oc3cc(N4CCCCC4)ccc32)c2ccccc21 (centres unmarked) = 523 nm

Please fill in: Abs Max reported for COc1ccc2c(c1)Oc1cc(N)ccc1C21OC(=O)c2ccccc21 (centres unmarked) = 477 nm

Please fill in: Abs Max reported for COCOc1ccc2c(c1)Oc1cc(NC(=O)c3ccccc3)ccc1C21OC(=O)c2ccccc21 (centres unmarked) = 293 nm

Please fill in: Abs Max reported for CCN(CC)c1ccc2c(c1)Oc1cc(O)ccc1C21OC(=O)c2ccccc21 (centres unmarked) = 522 nm

Please fill in: Abs Max reported for O=C(Nc1ccc2c(c1)Oc1cc(O)ccc1C21OC(=O)c2ccccc21)c1ccccc1 (centres unmarked) = 462/490

Please fill in: Abs Max reported for CCCNc1ccc2c(c1)Oc1cc(O)ccc1C21OC(=O)c2ccccc21 (centres unmarked) = 507 nm

Attribution: patent US8148423B2
